protocol: folding stability dG unfold from trypsin proteolysis; higher = more stable
recorded-endpoint: folding stability dG unfold (kcal/mol)
State the answer as a number, implicitly in kcal/mol.

Worked examples, 3 sequences total:
>  <biosequence>
SAGGSAGGKPKPVLRTFEVRDPATGELYKVELVVLDDGSVRALVTRRDGRKREFTFDAPASLILSAGGSAGG [r6_588_TrMRF]

>  <recorded-endpoint>
folding stability dG unfold

>  <endpoint-value>
1.59

$$$$
>  <biosequence>
SAGGSAGGEKPVVTRLELVETEEGLVRLRVELPDGELVEERRFPTLEEALAALPPGAKVEIVPLSAGGSAGG [r6_492_TrROS_Hall]

>  <recorded-endpoint>
folding stability dG unfold

>  <endpoint-value>
1.85

$$$$
>  <biosequence>
SAGGSAGGSAMLRIRFENGLEIEIPKDMTLEELKKLAEELAEELKKEGKEVEVKIVEIEPVPSAGGSAGGSA [r18_213_TrROS_Hall]

>  <recorded-endpoint>
folding stability dG unfold

>  <endpoint-value>
1.65

$$$$

// next item, folding stability dG unfold requested
**Q:** Identify measured folding stability dG unfold associated with SAGGSAGGSLMIPIPPGKPINIKFEIKNDDGHPMRITETYPVKNGYYVIRVENPNGNEQIIPFSAGGSAGGS [r12_31_TrROS]
**A:** -0.247

----------
protocol: folding stability dG unfold (combined trypsin and chymotrypsin); higher = more stable
Decide by folding stability dG unfold: equal to or exceeding 2 kcal/mol means True, less means False.

Previously resolved entries follow.
>  <biosequence>
GPSPVSVSTSTSTSLSTVGNTPVLVTTTTTTTTTLSPDPTDPSVTTTTTTTTTTTTVYDPANGKPLSTTTSS [r1_406_JUSTAS]

>  <cat>
False

$$$$
>  <biosequence>
SAGGSAGGGIDLSNPEDIEEALKKSGIVGVFKVKIIPLPGGKWKKIIEPVKLLPKEELEKAGLISAGGSAGG [r6_402_TrMRF]

>  <cat>
False

$$$$

**Q:** Record SAGGSAGMMPTKITVTLTLPPDAPDVEAVAERLAAELGVEVSNAEVLEVRRLPDGSREVVIELTLLSAGGSA [r15_654_JUSTAS] ; criterion: folding stability dG unfold no lower than 2 kcal/mol. Met?
**A:** True

**Q:** Record SAGGTLEEFARDLAKELAKENGGKNVPFEIEIPVKMEWYPSPDGDPEPIMTHPMRIRIQFQIPPGQPSAGGS [r16_156_TrROS] ; criterion: folding stability dG unfold no lower than 2 kcal/mol. Met?
**A:** False

----------
protocol: folding stability dG unfold from trypsin proteolysis; higher = more stable
recorded-endpoint: folding stability dG unfold (kcal/mol)
State the answer as a number, implicitly in kcal/mol.

Worked examples, 5 sequences total:
>  <biosequence>
SAGMKLTVTITDPATGKTYTITVKPGGETTVTNGSSTTSISIPTSDPKKVEELAEEIEPKGYTATITLESAG [r5_791_JUSTAS]

>  <readout-unit>
kcal/mol

>  <folding stability dG unfold>
1.17

$$$$
>  <biosequence>
SAGGGHMMPNITVDVEEEVFTLPDGSILTRTTVTVTLPNGKKTTVETEYFYDTKTGTVSSKVVKVEASAGGS [r16_166_JUSTAS]

>  <readout-unit>
kcal/mol

>  <folding stability dG unfold>
2.72

$$$$
>  <biosequence>
SAGGSAGGSAGGSNIEVHYFPDGAIVMTIREPNGWYIKIVARIPPDGNIKITEIELFPMSAGGSAGGSAGGS [r4_246_TrROS]

>  <readout-unit>
kcal/mol

>  <folding stability dG unfold>
3.24

$$$$
>  <biosequence>
SAGGSAEPPEVTVEVLSVEPTPDGYLVVERVVTTPDGVLVYRTVFRPPDGKPVGTDWALFPNPDALSAGGSA [r15_716_TrMRF]

>  <readout-unit>
kcal/mol

>  <folding stability dG unfold>
2.17

$$$$
>  <biosequence>
SAGGHHMTIETFEEPDKLTVVVDGDDPEATREYLLQKVKEESSRKPVKVTFTEDPNGKLTITFDLKEESAGG [r13_158_JUSTAS]

>  <readout-unit>
kcal/mol

>  <folding stability dG unfold>
-0.568

$$$$

**Q:** Identify measured folding stability dG unfold associated with SAGGSAGGSPLVKTTTSVDPVGPDRTLTTSTATLPSGGTTVTTTTFLTSPDGTVPVATTTTPSASAGGSAGG [r6_471_JUSTAS]
**A:** -0.461

**Q:** Identify measured folding stability dG unfold associated with SAGGSAGGSAMLTKITITFEKPGTDETFTKPIDVPPDNPEEAIKAIKEELKKKGYKVKSVILSAGGSAGGSA [r18_3_JUSTAS]
**A:** 1.28

**Q:** Identify measured folding stability dG unfold associated with SSAEELARRLAAELAERLPPGARITDVRIERRADGTVTITVTVELPDGRTLTVTITLDLATGEITIEIHPSA [r9_219_TrROS_Hall]
**A:** 4.95

**Q:** Identify measured folding stability dG unfold associated with SAGGSAGGSAGPKWKQITIPMEPGQSVNEIADEIKDELGPGKRVHVSMHENGWMTIYVRKSAGGSAGGSAGG [r17_20_TrROS]
**A:** -0.484

**Q:** Identify measured folding stability dG unfold associated with SAGGMEVEITIVVPPGASLEEIEELARKLAEELGLSVENIKVTVIVVEPEEEEEEEEEKKLKEEEEKSAGGS [r16_240_TrROS_Hall]
**A:** 1.93

**Q:** Identify measured folding stability dG unfold associated with SAGGSAGGSAGGMAENLSPEQLRELAKELGLSEEDLEPGQVVRFRLPNGEVIEVRVEDESAGGSAGGSAGGS [r10_623_TrROS_Hall]
**A:** 1.29

**Q:** Identify measured folding stability dG unfold associated with SAGKKKKYKIKIKIEISEDGTIKITIEIFDKNGKLVKKIEITIKLPKVKLSEEELKEAAKKGDLEKALKSAG [r5_944_TrROS_Hall]
**A:** 2.23

**Q:** Identify measured folding stability dG unfold associated with SAGGSAGGSAGGSKPNNFKNIPKPVFKFKITTTEWKKNKDGTWTPVSTSTAEVTVWSNTSAGGSAGGSAGGS [r4_288_TrMRF]
**A:** 3.2

**Q:** Identify measured folding stability dG unfold associated with SAGGSAGGSYPIFDKEKGKLDPGPPEKELDVVIKVKKDGKWYPIDLKLSKSDLIRFVKELEKDSAGGSAGGS [r20_148_TrMRF]
**A:** -0.698
